- subject.of.test: Solute carrier family 22 member 6 (Rattus norvegicus, UniProt O35956)
- Sequence (O35956 whole entry): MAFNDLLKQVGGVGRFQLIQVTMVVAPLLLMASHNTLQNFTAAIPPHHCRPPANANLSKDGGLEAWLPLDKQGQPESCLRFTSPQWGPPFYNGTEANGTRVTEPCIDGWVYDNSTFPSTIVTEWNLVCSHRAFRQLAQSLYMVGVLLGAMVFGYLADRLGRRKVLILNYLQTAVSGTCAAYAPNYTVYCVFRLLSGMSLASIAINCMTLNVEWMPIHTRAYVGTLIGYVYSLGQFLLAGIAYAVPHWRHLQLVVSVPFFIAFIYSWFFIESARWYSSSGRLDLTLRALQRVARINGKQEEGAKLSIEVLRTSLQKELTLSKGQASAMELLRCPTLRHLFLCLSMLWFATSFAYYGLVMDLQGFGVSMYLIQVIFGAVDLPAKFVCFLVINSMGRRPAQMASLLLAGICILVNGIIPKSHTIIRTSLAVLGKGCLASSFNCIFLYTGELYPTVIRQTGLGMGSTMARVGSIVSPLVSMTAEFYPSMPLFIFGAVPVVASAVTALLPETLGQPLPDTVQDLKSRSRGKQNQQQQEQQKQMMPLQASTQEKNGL
- assay.comment: TP_TRANSPORTER: inhibition of PAH uptake in Xenopus laevis oocytes
measure.name: IC50
Enter the number, and then the unit.

Find the measured IC50 of CN(C)CCn1nnnc1SCC1=C(C(=O)O)N2C(=O)[C@@H](NC(=O)Cc3csc(N)n3)[C@H]2SC1 [CEFOTIAM] and report it.
718 µM
